# Target: T1, human CD3e (T-cell surface glycoprotein CD3 epsilon chain) (human, UniProt P07766 23-207)
# T1 construct: Target of the anti-hCD3e antibodies on human PBMC, Jurkat cells and cells expressing human CD3e; on T cells it is part of the CD3/TCR complex; also called hCD3e; CD3e on human PBMC
# Protocol Details: flow cytometry, human PBMC, antibody 10 µg/mL, anti-human IgG Fc-Alexa Fluor647 (1:500), anti-hTcRβ-PerCP (1:30)
// reported upper left quadrant, percent of cells AF647+ / hTcRβ-PerCP- for each item listed
Express it in %; write the number only.

Binder	Readout Value
1B1-H2K3-IgG1-LALA (antibody, V domains shown, Humanized; human IgG1 with LALA mutations; also called H2K3 (humanized 1B1)) VH: QVQLVQSGAEVKKPGASVKLSCKASGYTFTSYWMHWVRQAPGQGLEWIGNIYPDSGTTNYGEKFKTRVTLTVDTSTSTAYMELSSLRSEDTAVYYCTRDTSGQYYFDYWGQGTLVTVSS VL: DIVMTQSPDSLAVSAGERVTMNCKSSQSLLNSRTRKNYLAWYQHKPGQSPKLLIYWASTRESGVPDRFSGSGSGTDFTLTISSVQAEDVAVYYCVQSFSLRAFGGGTKLEIK	10.9
1B1-H1K1-IgG1-LALA (antibody, V domains shown, Humanized; human IgG1 with LALA mutations; also called H1K1 (humanized 1B1)) VH: QVQLVQSGAEVKKPGASVKVSCKASGYTFTSYWMHWVRQAPGQGLEWIGNIYPDSGTTNYGEKFKTRVTLTVDTSTSTAYMELSSLRSEDTAVYYCTRDTSGQYYFDYWGQGTLVTVSS VL: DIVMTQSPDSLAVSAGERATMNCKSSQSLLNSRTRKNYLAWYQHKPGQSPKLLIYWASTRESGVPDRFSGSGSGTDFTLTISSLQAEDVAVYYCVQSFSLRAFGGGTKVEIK	8.68
1B1-H3K2-IgG1-LALA (antibody, V domains shown, Humanized; human IgG1 with LALA mutations; also called H3K2 (humanized 1B1)) VH: QVQLVQSGAEVKKPGASVKLSCKASGYTFTSYWMHWVRQRHGQGLEWIGNIYPDSGTTNYGEKFKTRVTLTVDTSTSTAYMELSSLRSEDTAVYYCTRDTSGQYYFDYWGQGTLVTVSS VL: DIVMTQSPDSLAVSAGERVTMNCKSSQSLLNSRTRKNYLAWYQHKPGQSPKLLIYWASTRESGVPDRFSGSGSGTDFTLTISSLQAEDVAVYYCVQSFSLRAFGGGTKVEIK	9.23
1B1-H2K2-IgG1-LALA (antibody, V domains shown, Humanized; human IgG1 with LALA mutations; also called H2K2 (humanized 1B1)) VH: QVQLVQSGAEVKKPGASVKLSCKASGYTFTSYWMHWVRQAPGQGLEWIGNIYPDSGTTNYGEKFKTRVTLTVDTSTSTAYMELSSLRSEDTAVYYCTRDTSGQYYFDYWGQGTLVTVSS VL: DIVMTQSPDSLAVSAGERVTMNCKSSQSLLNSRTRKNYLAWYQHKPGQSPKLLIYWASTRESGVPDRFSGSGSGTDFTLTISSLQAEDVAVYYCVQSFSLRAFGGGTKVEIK	9.49

Which upper left quadrant, percent of cells AF647+ / hTcRβ-PerCP- is reported for this binder? 1B1-H4K2-IgG1-LALA (antibody, V domains shown, Humanized; human IgG1 with LALA mutations; also called H4K2 (humanized 1B1)) VH: QVQLVQSGAEVVKPGASVKLSCKASGYTFTSYWMHWVRQRHGQGLEWIGNIYPDSGTTNYGEKFKTRGTLTVDTSTSTAYMELSSLRSEDTAVYYCTRDTSGQYYFDYWGQGTLVTVSS VL: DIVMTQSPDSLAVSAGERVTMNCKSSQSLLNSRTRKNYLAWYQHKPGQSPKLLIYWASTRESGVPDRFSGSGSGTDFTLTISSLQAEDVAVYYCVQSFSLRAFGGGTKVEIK
11

Which upper left quadrant, percent of cells AF647+ / hTcRβ-PerCP- is reported for this binder? 1B1-H3K3-IgG1-LALA (antibody, V domains shown, Humanized; human IgG1 with LALA mutations; also called H3K3 (humanized 1B1)) VH: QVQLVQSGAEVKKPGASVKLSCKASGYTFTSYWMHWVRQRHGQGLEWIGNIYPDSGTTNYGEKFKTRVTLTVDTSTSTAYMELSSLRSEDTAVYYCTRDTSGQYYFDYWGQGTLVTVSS VL: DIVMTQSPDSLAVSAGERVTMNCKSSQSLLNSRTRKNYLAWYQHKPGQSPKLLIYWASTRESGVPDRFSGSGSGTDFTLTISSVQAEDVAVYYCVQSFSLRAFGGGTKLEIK
9.61

Which upper left quadrant, percent of cells AF647+ / hTcRβ-PerCP- is reported for this binder? 1B1-H3K1-IgG1-LALA (antibody, V domains shown, Humanized; human IgG1 with LALA mutations; also called H3K1 (humanized 1B1)) VH: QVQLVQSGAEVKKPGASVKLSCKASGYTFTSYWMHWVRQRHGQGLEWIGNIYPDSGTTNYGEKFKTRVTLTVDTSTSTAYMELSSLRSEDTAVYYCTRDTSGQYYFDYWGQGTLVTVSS VL: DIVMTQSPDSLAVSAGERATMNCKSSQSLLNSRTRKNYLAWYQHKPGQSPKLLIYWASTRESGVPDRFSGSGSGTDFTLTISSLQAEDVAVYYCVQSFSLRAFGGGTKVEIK
7.75
